# Test Summary: probe aNOTCH3 binding on compound microarray – biochemical, small-molecule microarray, 635/667 nm fluorescence, primary screen (AID 1120);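 further: probe is a biotin-tagged antibody raised against NOTCH3 rather than NOTCH3 protein; score merges spot fluorescence near 667 nm with spot signal to noise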
# Condition Details: higher = more signal

- Molecule: "COc1ccc(C(O)C2C=CC3C(=O)N(C)C(=O)C3N2N(c2ccccc2)c2ccccc2)cc1 (stereo not given)"
  composite z-score: 0.016
- Molecule: "COCC(=C=CC[C@H](O)c1ccccc1OCCO)C[C@H](O)COCc1ccccc1"
  composite z-score: 0.304
- Molecule: "C=C(CCCC)/C(=C/C[C@H](OC(C)=O)c1cccc(OCCO)c1)c1cnc2ccccc2c1"
  composite z-score: -0.135
- Molecule: "CC(C)[Si](C#CCCc1ccccc1)(O[C@H](c1ccccc1)c1cn(Cc2ccccc2)nn1)C(C)C"
  composite z-score: 0.073
- Molecule: "CC(C)NC(=O)[C@@H]1c2ccccc2C(=O)N(Cc2ccc(OC(F)(F)F)cc2)[C@H]1c1ccc(CO)cc1"
  composite z-score: 0.503
